Values compiled from patent US9266835B2.

Here, each record is paired with measured pEC50 data.
system-tested: Human CB2R (Cannabinoid receptor 2) (Homo sapiens (Human), UniProt P34972)
Sequence (P34972 whole entry): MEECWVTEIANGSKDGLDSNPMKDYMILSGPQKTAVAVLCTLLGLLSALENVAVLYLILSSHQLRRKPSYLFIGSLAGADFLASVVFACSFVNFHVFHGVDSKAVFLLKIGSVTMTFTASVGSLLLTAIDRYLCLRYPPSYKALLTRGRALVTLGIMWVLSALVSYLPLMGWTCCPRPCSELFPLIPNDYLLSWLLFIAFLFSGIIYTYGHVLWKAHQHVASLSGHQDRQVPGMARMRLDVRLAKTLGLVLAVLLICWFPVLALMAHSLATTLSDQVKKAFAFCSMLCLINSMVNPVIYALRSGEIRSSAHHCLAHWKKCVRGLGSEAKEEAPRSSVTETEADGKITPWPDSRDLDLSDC
method-notes: CB-2 in vitro cAMP assay (HTRF), inverse agonism
Type: cell-based
recorded-conditions: mean where tested more than once
Source text: CB1 and CB2 receptors are Gi-coupled GPCR. Activation of CB1 and CB2 receptors results in a decrease in cAMP production. An inverse agonist of the CB1 or CB2 receptor results in the opposite effect, an increase of cAMP production. The principle of this assay is based on HTRF® technology (Homogeneous Time-Resolved Fluorescence). […] The tracer binding is quantified by a Mab anti-cAMP labeled with Eu3+TBP-NHS Cryptate (supplied as part of the assay kit). […]
pEC50: −log10 of the molar value.

O=c1cc(/C=C/c2cccc(F)c2)c2cc(C(c3ccccc3)c3ccc(Cl)cc3)ccc2[nH]1 (stereo not shown) = < 5.00

Recorded pEC50 of O=c1cc(/C=C/c2cccc(F)c2)c2cc(C(c3ccc(Cl)cc3)c3nccs3)ccc2[nH]1 (stereo not shown) , please. < 5.00

Recorded pEC50 of O=C(O)CC(=O)N1CCC(Nc2cc(=O)[nH]c3ccc(C(c4ccc(Cl)cc4)c4ccc(Cl)cc4)cc23)CC1 , please. < 5.00

Recorded pEC50 of O=c1cc(NCc2ccc(C(F)(F)F)cc2)c2cc(C(c3ccc(Cl)cc3)c3ccc(Cl)cc3)ccc2[nH]1 , please. < 5.00

Recorded pEC50 of CC(C)(C)OC(=O)NCCCCOc1cc(C(c2ccc(Cl)cc2)c2ccc(Cl)cc2)cc2c(NC3CCN(S(=O)(=O)C(F)(F)F)CC3)ccnc12 , please. < 4.68

Recorded pEC50 of O=c1cc(Nc2ccc(C(F)(F)F)cc2)c2cc(C(c3ccc(Cl)cc3)c3ccc(Cl)cc3)ccc2[nH]1 , please. < 5.00

Recorded pEC50 of O=c1cc(/C=C/c2cccc(C(F)(F)F)c2)c2cc(C(c3ccc(Cl)cc3)c3cccs3)ccc2[nH]1 (stereo not shown) , please. < 5.00
